In this section, each of the molecules is paired with its reported Inhibition.
system: Klebsiella pneumoniae; details: Concentration 32 ug.mL-1;; ASSAY_TEST Inhibition of Bacterial Growth; detection method Absorption (OD600); MEDIA CAMHB; plate type 384well; NBS; CORNING #3640; time 18 hr
Description: Antibacterial activity against Klebsiella pneumoniae MDR ATCC 70063 (CO-ADD:GN_003); MIC in CAMBH media using NBS plates, by OD(600)
Results with a measured potency or affinity are listed apart.
Number only, in %; omit the unit.

O=C(Cn1nc2c(=O)n(-c3ccc(Br)cc3)ccn2c1=O)Nc1cc(F)ccc1F :: 9.16
COc1cccc(Oc2nccn3c(=O)n(CC(=O)Nc4ccccc4C(F)(F)F)nc23)c1 :: 12.08
O=C(Cn1nc2ccc(C(=O)NCc3ccccc3)cn2c1=O)Nc1ccc2c(c1)OCO2 :: 7.16

Short answer for "COc1ccc(OC)c(NC(=O)Cn2nc3c(SCc4ccc(Cl)cc4)nccn3c2=O)c1" : Inhibition was 1.59

Short answer for "CCc1nnc2c(S(=O)(=O)N(Cc3cccc(C)c3)c3ccc(C(C)C)cc3)cccn12" : Inhibition was 14.47

====

In this section, each of the molecules is paired with its reported Inhibition.
test system: Klebsiella pneumoniae; details: Concentration 32 ug.mL-1;; ASSAY_TEST Inhibition of Bacterial Growth; detection method Absorption (OD600); MEDIA CAMHB; plate type 384well; NBS; CORNING #3640; time 18 hr
Measured potencies and affinities stand elsewhere.
Number only, in %; omit the unit.

Illustrative cases are given below, each with its answer.
Cc1cccc(C)c1NC(=O)Cn1nc2c3cc(-c4ccc(Cl)cc4)nn3ccn2c1=O :: 6.6
CCc1ccccc1Sc1nccn2c(=O)n(CC(=O)Nc3cc(Cl)c(OC)cc3OC)nc12 :: -2.45

Short answer for "O=C(Cn1nc2c3c4c(sc3ncn2c1=O)CCCC4)NCc1ccccc1Cl" : Inhibition was 0.41

Short answer for "Cc1cccc(C)c1NC(=O)Cn1nc2c(N3CCSCC3)nc3ccccc3n2c1=O" : Inhibition was 7.3

Short answer for "N#CCSc1nnc2c(=O)n(-c3ccc(Br)cc3)ccn12" : Inhibition was 12.03

====

In this section, each of the molecules is paired with its reported Inhibition.
test system: Candida albicans; conditions: Concentration 32 ug.mL-1; ASSAY_TEST Inhibition of Fungal Growth; detection method Absorption (OD530)
Description: Antifungal activity against Candida albicans ATCC 90028 (CO-ADD:FG_001); MIC in YNB media using NBS plates, by OD630
Measured potencies and affinities stand elsewhere.
Number only, in %; omit the unit.

Cc1ccc(NC(=O)CSc2nc3ccccc3n3cnnc23)c(C)c1 :: 26.16
Cc1cc(C)cc(Nc2nc(C)cc3nn(CC(=O)NC4CCCC4)c(=O)n23)c1 :: 3.67
Cc1ccc(NC(=O)Cn2nc3ccc(SC(C)(C)C)nn3c2=O)cc1C :: 5.53
CCN(C(=O)CSc1nnc2c3cc(-c4ccc(OC)cc4)nn3ccn12)c1ccccc1 :: 2.01
Cc1ccc(Sc2nccn3c(=O)n(CC(=O)Nc4ccc(C)c(Cl)c4)nc23)c(C)c1 :: -2.58

Short answer for "Cc1ccc(Cn2nc3c(=O)n(-c4cccc(F)c4)ccn3c2=O)cc1" : Inhibition was 5.68

Short answer for "COc1ccc(NC(=O)Cn2nc3c(Oc4ccccc4)nccn3c2=O)cc1OC" : Inhibition was 1.92

Short answer for "O=C(Cn1nc2ccc(Sc3cccc(F)c3)nn2c1=O)NCc1ccc(C(F)(F)F)cc1" : Inhibition was 1.44

Short answer for "Cc1ccc(Oc2nc3ccccc3n3c(=O)n(CC(=O)Nc4ccc5c(c4)OCO5)nc23)cc1" : Inhibition was 10.98

Short answer for "Cc1ccc(Sc2nccn3c(=O)n(CC(=O)Nc4ccc(C)cc4Br)nc23)c(C)c1" : Inhibition was 2.86

Short answer for "Cc1cc2nn(CC(=O)N3CCCC3)c(=O)n2c(Nc2ccc(C)c(F)c2)n1" : Inhibition was 0.7

Short answer for "O=C(Cn1nc2ccc(SCc3ccc(Cl)cc3)nn2c1=O)Nc1cccc(F)c1" : Inhibition was 31.36
